meta.source: patent US20100009970A1

IC50 overview
- System: Huh7 cells expressing a subgenomic RNA replicon of Con1 (genotype 1b) sequence origin
- method_description: microbe, parasite or virus in culture
- stated_conditions: Hepatitis C virus, Huh-7
Where a name gives a salt, the structure may show the parent alone.
Answer with the figure and its unit, nothing else.

Worked examples follow.
- molecule: "O=c1[nH]cc(F)c(=O)[nH]1 [Fluorouracil, reference compound]"
  IC50: "18.7 µM"
- molecule: "CN[C@H]1CC[C@@H](c2ccc(Cl)c(Cl)c2)c2ccc(NC(C)=O)cc21 [Sertraline A-Ring Reverse Carboxamide]"
  IC50: "0.85 µM"
- molecule: "CN[C@H]1CC[C@@H](c2ccc(Cl)c(Cl)c2)c2ccc(NC(=O)C3CCCC3)cc21"
  IC50: "4.02 µM"
- molecule: "CC1(C)C(/C=C/C=C/C=C/C=C2\\N(CCCCS(=O)(=O)O)c3ccc4ccccc4c3C2(C)C)=[N+](CCCCS(=O)(=O)[O-])c2ccc3ccccc3c21 [Indocyanine Green, reference compound]"
  IC50: "8.13 µM"
- molecule: "COC(=O)Nc1nc2cc(C(=O)c3ccc(F)cc3)ccc2[nH]1 [Flubendazole, reference compound]"
  IC50: "0.173 µM"
- molecule: "O=C1Nc2ccc(Cl)cc2[C@@](C#CC2CC2)(C(F)(F)F)O1 [Efavirenz, efavirenz, reference compound]"
  IC50: "15.5 µM"

Q. Requested read-out: IC50. Entry: CN(C)CCOC(C)(c1ccccc1)c1ccc(Cl)cc1 (stereo not shown) [Chlorphenoxamine (e.g., hydrochloride), chlorphenoxamine, reference compound]
A. 16.2 µM

###

- method_description: in vitro
- stated_conditions: human, CC50 (uM) [SG]
measured_endpoint: CC50 (µM)
Give a bare numeral; the unit µM is implied.

Would you please look over these solved cases?
- smiles_text: "CN[C@H]1CC[C@@H](c2ccc(Cl)c(Cl)c2)c2ccc(C(=O)NC3CC3)cc21"
  measured_endpoint: "CC50"
  units_label: "µM"
  experimental_value: 8.87
- smiles_text: "CSc1ccc(Nc2ccc(S(N)(=O)=O)cc2CN(C)C)cc1C"
  measured_endpoint: "CC50"
  units_label: "µM"
  experimental_value: 44.9
- smiles_text: "CN[C@H]1CC[C@@H](c2ccc(Cl)c(Cl)c2)c2ccc(C(=O)OC)cc21"
  measured_endpoint: "CC50"
  units_label: "µM"
  experimental_value: 13.7
- smiles_text: "CN(CCO)[C@H]1CC[C@@H](c2ccc(Cl)c(Cl)c2)c2ccccc21"
  measured_endpoint: "CC50"
  units_label: "µM"
  experimental_value: 49.8

Please turn your attention to the following entry.
Q. I'd like to know its CC50. The compound in question is CSc1ccc(Oc2ccc(S(N)(=O)=O)cc2CNCCN(C)C)cc1C
A. 19.4

###

- System: Huh7 cells expressing a subgenomic RNA replicon of Con1 (genotype 1b) sequence origin
- method_description: microbe, parasite or virus in culture
- stated_conditions: Hepatitis C virus, GETYPE1B, Huh-7, 72 h, read-out: Max Effect @CC30 (inhibition)
Measured Emax by item
Please give a number only; it is taken to be in %.

- compound: "CN(C)[C@H]1CC[C@@H](c2ccc(Cl)c(Cl)c2)c2ccccc21"
  Emax [%]: 99
- compound: "CN[C@H]1CC[C@@H](c2ccc(Cl)c(Cl)c2)c2ccc(C(=O)OC)cc21"
  Emax [%]: 78
- compound: "CN[C@H]1CC[C@@H](c2ccc(Cl)c(Cl)c2)c2ccc(S(=O)(=O)NCCO)cc21 [Sertraline Sulfonamide Ethanol]"
  Emax [%]: 80
- compound: "CN[C@H]1CC[C@@H](c2ccc(Cl)c(Cl)c2)c2ccc(I)cc21 [Sertraline Iodide]"
  Emax [%]: 25
- compound: "CN[C@H]1CC[C@@H](c2ccc(Cl)c(Cl)c2)c2ccc(CO)cc21"
  Emax [%]: 92
- compound: "CN[C@H]1CC[C@@H](c2ccc(Cl)c(Cl)c2)c2ccc([N+](=O)[O-])cc21"
  Emax [%]: 27

// next entry
Q. What Emax appears in the records for this compound with Huh7 cells expressing a subgenomic RNA replicon of Con1 (genotype 1b) sequence origin? CN[C@H]1CC[C@@H](c2ccc(Cl)c(Cl)c2)c2ccc(C#N)cc21
A. 87
